- Species: Homo sapiens
- TEST DESCRIPTION: Selectivity ratio of IC50 for human ERG to IC50 for ROMK (unknown origin)
Ratio IC50 strictly under 200 means Fulfilled; at 200 or over means Not fulfilled.

Consider the worked cases shown below.
MOLECULE	GROUP LABEL
Cc1c(C(F)CN2CCN(C(=O)Cc3ccc(-n4cnnn4)cc3)CC2)ccc2c1COC2=O (stereo not given)	Not fulfilled
Cc1c(C(C)CN2CCN(C(=O)Cc3ccc(-n4cnnn4)cc3)CC2)ccc2c1COC2=O (stereo not given)	Not fulfilled
Cc1c(CCN2CCN(CCc3ccc4c(c3C)COC4=O)CC2)ccc2c1COC2=O	Fulfilled

Next up:
## Task Answer whether the molecule Cc1c(C(F)CN2CCN(CC(F)c3ccc4c(c3C)COC4=O)CC2)ccc2c1COC2=O (stereo not given) has Ratio IC50 strictly less than 200
## Result Not fulfilled

###

- TARGET ENTITY: Sodium-dependent serotonin transporter (Homo sapiens)
- Sequence (P31645 whole entry): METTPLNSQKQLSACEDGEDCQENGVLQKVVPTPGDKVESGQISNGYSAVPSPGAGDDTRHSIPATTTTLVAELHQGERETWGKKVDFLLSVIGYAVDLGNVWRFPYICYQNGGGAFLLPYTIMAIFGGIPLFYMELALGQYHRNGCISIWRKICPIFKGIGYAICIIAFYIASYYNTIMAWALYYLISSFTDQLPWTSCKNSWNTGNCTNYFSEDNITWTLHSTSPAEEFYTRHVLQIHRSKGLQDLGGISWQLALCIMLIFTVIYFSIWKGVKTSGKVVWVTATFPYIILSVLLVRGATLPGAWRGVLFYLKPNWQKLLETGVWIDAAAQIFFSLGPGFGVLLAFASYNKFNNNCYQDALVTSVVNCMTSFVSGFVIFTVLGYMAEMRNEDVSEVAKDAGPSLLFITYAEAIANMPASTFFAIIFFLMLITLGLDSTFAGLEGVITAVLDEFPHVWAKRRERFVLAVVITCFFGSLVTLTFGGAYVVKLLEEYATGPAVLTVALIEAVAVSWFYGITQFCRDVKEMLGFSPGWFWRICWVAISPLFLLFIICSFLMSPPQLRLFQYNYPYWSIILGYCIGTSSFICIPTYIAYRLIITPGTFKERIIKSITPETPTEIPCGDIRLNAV
- TEST DESCRIPTION: Inhibition of human SERT
OBSERVATION TYPE: pIC50
Just so you know, pIC50 here is -log10 of the concentration in molar units; reply with that number alone.

## Task # pIC50 lookup, item `Cc1c([C@@H](O)CN2CCN(C[C@H](O)c3ccc4c(c3C)COC4=O)CC2)ccc2c1COC2=O`
## Result 6.92

###

- TARGET ENTITY: Cytochrome P450 2D6 (Homo sapiens, UniProt P10635)
- Sequence (P10635 whole entry): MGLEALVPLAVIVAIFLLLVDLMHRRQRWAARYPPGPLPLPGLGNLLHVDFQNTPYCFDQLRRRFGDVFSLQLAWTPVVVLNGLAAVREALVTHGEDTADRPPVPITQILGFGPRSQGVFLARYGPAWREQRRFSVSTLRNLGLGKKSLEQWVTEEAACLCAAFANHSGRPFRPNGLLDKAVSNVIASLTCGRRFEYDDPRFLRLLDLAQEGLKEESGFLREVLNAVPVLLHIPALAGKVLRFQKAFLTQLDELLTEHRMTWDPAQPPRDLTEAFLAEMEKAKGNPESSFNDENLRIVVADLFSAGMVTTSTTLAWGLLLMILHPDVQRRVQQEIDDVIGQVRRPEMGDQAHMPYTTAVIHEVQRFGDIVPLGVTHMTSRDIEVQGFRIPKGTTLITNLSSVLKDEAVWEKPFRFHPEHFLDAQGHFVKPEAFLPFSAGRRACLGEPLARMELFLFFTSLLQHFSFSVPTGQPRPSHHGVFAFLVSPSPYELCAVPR
OBSERVATION TYPE: IC50

## Task Missing value: IC50, Cytochrome P450 2D6 (Homo sapiens, UniProt P10635), entry `Cc1c([C@@H](O)CN2CCN(C[C@H](O)c3ccc4c(c3C)COC4=O)CC2)ccc2c1COC2=O` . Fill in?
## Result > 50 µM

###

- TEST DESCRIPTION: Drug metabolism in monkey hepatocytes assessed as lactone hydrolysis at 1 uM measured at 120 mins
- Assay type: ADME, cell-based, Macaca mulatta, Hepatocyte
- RUN CONDITIONS: rhesus monkey, read-out: Drug metabolism
OBSERVATION TYPE: metabolised at 2 h, 1 µM

## Task # metabolised at 2 h, 1 µM lookup, item `Cc1c([C@@H](O)CN2CCN(C[C@H](O)c3ccc4c(c3C)COC4=O)CC2)ccc2c1COC2=O`
## Result < 1%

###

- TARGET ENTITY: Voltage-gated inwardly rectifying potassium channel KCNH2 (Homo sapiens, UniProt Q12809)
- Sequence (Q12809 whole entry): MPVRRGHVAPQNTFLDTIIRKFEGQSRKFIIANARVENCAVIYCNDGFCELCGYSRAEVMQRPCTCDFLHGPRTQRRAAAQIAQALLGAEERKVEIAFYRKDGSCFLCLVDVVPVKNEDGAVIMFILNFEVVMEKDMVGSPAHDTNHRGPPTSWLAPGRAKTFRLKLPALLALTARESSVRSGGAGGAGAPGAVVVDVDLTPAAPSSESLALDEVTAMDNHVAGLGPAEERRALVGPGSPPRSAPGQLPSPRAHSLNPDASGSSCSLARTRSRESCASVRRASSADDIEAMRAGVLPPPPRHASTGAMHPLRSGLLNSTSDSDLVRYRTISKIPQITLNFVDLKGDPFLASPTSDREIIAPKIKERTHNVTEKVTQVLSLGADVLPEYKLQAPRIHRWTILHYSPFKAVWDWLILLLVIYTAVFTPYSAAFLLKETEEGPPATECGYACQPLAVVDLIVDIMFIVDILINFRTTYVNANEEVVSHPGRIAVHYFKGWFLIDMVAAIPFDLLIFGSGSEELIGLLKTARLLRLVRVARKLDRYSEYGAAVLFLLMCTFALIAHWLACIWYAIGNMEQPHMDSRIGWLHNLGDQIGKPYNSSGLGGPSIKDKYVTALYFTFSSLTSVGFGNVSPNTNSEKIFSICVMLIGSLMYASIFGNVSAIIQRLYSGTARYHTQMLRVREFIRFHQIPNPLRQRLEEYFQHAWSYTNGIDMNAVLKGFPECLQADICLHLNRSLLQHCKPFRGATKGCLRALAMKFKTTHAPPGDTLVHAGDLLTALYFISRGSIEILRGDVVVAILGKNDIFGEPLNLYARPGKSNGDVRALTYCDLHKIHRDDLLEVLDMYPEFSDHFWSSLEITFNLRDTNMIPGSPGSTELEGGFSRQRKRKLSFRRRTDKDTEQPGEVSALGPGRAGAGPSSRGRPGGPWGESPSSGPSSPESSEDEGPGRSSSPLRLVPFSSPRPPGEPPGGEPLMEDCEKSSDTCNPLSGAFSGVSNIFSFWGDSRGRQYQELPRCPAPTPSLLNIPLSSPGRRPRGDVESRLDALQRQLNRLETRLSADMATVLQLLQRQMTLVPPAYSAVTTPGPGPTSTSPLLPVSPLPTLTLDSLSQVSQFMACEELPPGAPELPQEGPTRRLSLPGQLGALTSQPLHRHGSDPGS
- TEST DESCRIPTION: Displacement of [35S]MK-499 from human ERG
Here, each record is paired with measured pIC50 data.
Just so you know, pIC50 here is -log10 of the concentration in molar units; reply with that number alone.

These solved cases illustrate the format of a correct answer.
MOLECULE	pIC50
Cc1c([C@H](O)CN2CCN(C[C@H](O)c3ccc4c(c3C)COC4=O)CC2)ccc2c1COC2=O	4.00
Cc1c([C@H](O)CN2CCN(C[C@@H](O)c3ccc4c(c3C)COC4=O)CC2)ccc2c1COC2=O	4.33
Cc1c([C@@H](O)CN2CCN(C[C@H](O)c3ccc4c(c3C)COC4=O)CC2)ccc2c1COC2=O	4.64
Cc1c(C(O)CN2CCN(C(=O)Cc3ccc(-n4cnnn4)cc3)CC2)ccc2c1COC2=O (centres undefined)	4.00
Cc1c(C(O)CN2CCN(CC(O)c3ccc4c(c3C)COC4=O)CC2)ccc2c1COC2=O (centres undefined)	4.64
Cc1c(C(F)CN2CCN(C(=O)Cc3ccc(-n4cnnn4)cc3)CC2)ccc2c1COC2=O (centres undefined)	4.17
Cc1c(CCN2CCN(CCc3ccc4c(c3C)COC4=O)CC2)ccc2c1COC2=O	5.52
Cc1c(C(F)CN2CCN(CC(F)c3ccc4c(c3C)COC4=O)CC2)ccc2c1COC2=O (centres undefined)	4.40

Moving on to another molecule below.
## Task # pIC50 lookup, item Cc1c(C(C)CN2CCN(C(=O)Cc3ccc(-n4cnnn4)cc3)CC2)ccc2c1COC2=O (centres undefined)
## Result 4.22
